tested_target: 14-3-3γ/SLP76 (Homo sapiens, UniProt P61981+Q13094)
Sequence (Q13094 356-533): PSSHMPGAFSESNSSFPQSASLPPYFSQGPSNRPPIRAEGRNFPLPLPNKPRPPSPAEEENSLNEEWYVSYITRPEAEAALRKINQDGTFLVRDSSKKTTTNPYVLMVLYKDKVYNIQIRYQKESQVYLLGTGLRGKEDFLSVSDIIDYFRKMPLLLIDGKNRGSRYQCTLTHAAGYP
Sequence (P61981 whole entry): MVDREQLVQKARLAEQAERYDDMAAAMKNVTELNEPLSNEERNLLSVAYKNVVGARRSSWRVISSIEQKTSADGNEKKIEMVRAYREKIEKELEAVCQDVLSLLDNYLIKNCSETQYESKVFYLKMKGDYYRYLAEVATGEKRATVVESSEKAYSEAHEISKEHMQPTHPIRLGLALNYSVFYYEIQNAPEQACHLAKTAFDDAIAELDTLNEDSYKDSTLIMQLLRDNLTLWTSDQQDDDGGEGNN
procedure_details: HTRF dose-response assay on 14-3-3γ/SLP76
Format: binding
run_conditions: stabilisation; 14-3-3γ-Tb 1 nM, SLP76-AF647 600 nM, 5% DMSO; EC50 estimated from fit; read-out: HTRF EC50 14-3-3γ/SLP76
Could you mark each record y if its EC50 falls strictly under 20 µM, and n if it equals or exceeds it?

>  <compound>
O=C(c1ccc(Cl)cc1)n1c(Cn2nnc(-c3cccc4ccccc34)n2)n[nH]c1=S [Compound 16]

>  <class_name>
y

$$$$
>  <compound>
CC(=O)CSc1nc2c(c(=O)[nH]c(=O)n2C)n1Cc1cccc(C)c1 [Compound 15]

>  <class_name>
y

$$$$
>  <compound>
COc1ccc(C(=O)N2C[C@@H]3CN(CCO3)C(=O)[C@@H]3C[C@@H](CN3Cc3ccc4c(c3)OCO4)NC(=O)C[C@@H]3O[C@H](C2)[C@@H](O)[C@H]3O)cc1 [Compound 4]

>  <class_name>
y

$$$$
>  <compound>
S=c1[nH]nc(Cn2nnc3ccccc32)o1 [Compound 13]

>  <class_name>
y

$$$$

Q) For this compound, is EC50 lower than 20 µM? COc1ccc(C(=O)N2C[C@@H]3CN(CCO3)C(=O)[C@@H]3C[C@@H](CN3Cc3cccnc3)NC(=O)C[C@@H]3O[C@H](C2)[C@@H](O)[C@H]3O)cc1 [Compound 3]
A) y

Q) Please indicate whether the reported EC50 of Cc1ccc(-c2ccc3c(n2)C(=N)NC3CCc2ccc(O)cc2)o1 (stereo not shown) [Compound 11] is strictly below 20 µM.
A) n

Q) Bench note: check whether O=C(Cn1nc(C(F)(F)F)c2c1CCCC2)Nc1ccc(Cl)c(Cl)c1 [Compound 14] shows EC50 below 20 µM
A) n

###

tested_target: 14-3-3γ/SLP76 (Homo sapiens, UniProt P61981+Q13094)
procedure_details: HTRF dose-response assay on 14-3-3γ/SLP76
Format: binding
run_conditions: stabilisation; 14-3-3γ-Tb 1 nM, SLP76-AF647 600 nM, 5% DMSO; EC50 estimated from fit; read-out: HTRF EC50 14-3-3γ/SLP76
// assign Condition met if EC50 falls strictly below 20 µM, else Condition not met (ties count as Condition not met)

// known answers, use as guide
>  <compound>
CC1=Nn2c(nnc2-c2ccoc2C)SC1

>  <tested_target>
14-3-3γ/SLP76 (Homo sapiens, UniProt P61981+Q13094)

>  <class_name>
Condition not met

$$$$
>  <compound>
CC(C)N1CC[C@H]2COC(=O)N2c2cc(F)ccc2C1

>  <tested_target>
14-3-3γ/SLP76 (Homo sapiens, UniProt P61981+Q13094)

>  <class_name>
Condition met

$$$$
>  <compound>
COc1ccccc1-c1nnc2scnn12

>  <tested_target>
14-3-3γ/SLP76 (Homo sapiens, UniProt P61981+Q13094)

>  <class_name>
Condition not met

$$$$

Q) Could you please tell me whether EC50 recorded for "O=C1OC[C@@H]2CCN(Cc3ccccc3)Cc3ccccc3N12" is less than 20 µM?
A) Condition met

Q) I wonder whether "c1cc(-c2nnc3scnn23)ccn1" has EC50 below 20 µM. Can you tell?
A) Condition met

Q) Decide: EC50 of CC1=CCC2COC(C[N+]3(C)CCCCC3)C1C2 (stereo not shown) strictly below 20 µM?
A) Condition not met

Q) # TODO verify EC50 < 20 µM strictly for this compound: "Fc1ccc(OCc2nn3c(Cn4cnc5ccccc54)nnc3s2)cc1"
A) Condition not met

###

tested_target: 14-3-3ζ/p27 (Homo sapiens, UniProt P46527+P63104)
Sequence (P63104 whole entry): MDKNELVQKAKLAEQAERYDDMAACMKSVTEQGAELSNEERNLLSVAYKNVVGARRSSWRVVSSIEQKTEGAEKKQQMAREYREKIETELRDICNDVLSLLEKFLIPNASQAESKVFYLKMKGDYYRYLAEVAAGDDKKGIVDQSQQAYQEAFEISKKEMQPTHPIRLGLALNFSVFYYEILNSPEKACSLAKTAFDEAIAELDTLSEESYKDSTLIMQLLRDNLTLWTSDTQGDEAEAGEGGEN
Sequence (P46527 whole entry): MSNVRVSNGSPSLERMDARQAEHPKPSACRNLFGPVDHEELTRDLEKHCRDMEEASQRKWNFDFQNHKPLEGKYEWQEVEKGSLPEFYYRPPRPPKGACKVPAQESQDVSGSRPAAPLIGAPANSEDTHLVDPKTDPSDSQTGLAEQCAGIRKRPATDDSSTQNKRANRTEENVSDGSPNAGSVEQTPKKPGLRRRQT
procedure_details: HTRF dose-response assay on 14-3-3ζ/p27
Assay type: binding
run_conditions: stabilisation; same FRET pair; EC50 estimated from fit; read-out: HTRF EC50 14-3-3ζ/p27
Each entry below lists one item and its recorded pEC50 value.
pEC50 is defined as minus the log10 of a concentration measured in mol/L.

>  <molecule>
Fc1ccc(OCc2nn3c(Cn4cnc5ccccc54)nnc3s2)cc1 [Compound 8]

>  <pEC50>
4.27

$$$$
>  <molecule>
CC(=O)CSc1nc2c(c(=O)[nH]c(=O)n2C)n1Cc1cccc(C)c1 [Compound 15]

>  <pEC50>
4.94

$$$$

Continue with the molecule presented below.
Q) # input molecule: COc1ccccc1-c1nnc2scnn12 [Compound 9] ; wanted: its pEC50
A) 5.24

###

Measured pEC50 by item
tested_target: 14-3-3ζ/p27 (Homo sapiens, UniProt P46527+P63104)
procedure_details: HTRF dose-response assay on 14-3-3ζ/p27
Format: binding
run_conditions: stabilisation; same FRET pair; EC50 estimated from fit; read-out: HTRF EC50 14-3-3ζ/p27
The meaning of pEC50 here: minus log10 of the concentration in molar units.

>  <compound>
CC1=Nn2c(nnc2-c2ccoc2C)SC1

>  <pEC50>
4.78

$$$$
>  <compound>
O=C(Cn1nc(C(F)(F)F)c2c1CCCC2)Nc1ccc(Cl)c(Cl)c1

>  <pEC50>
4.90

$$$$
>  <compound>
CC(C)CNC(=O)c1ccc2c(c1)nc1n2CCN(C(C)C)C1=O

>  <pEC50>
6.37

$$$$

Q) Looking for the measured pEC50 of "O=C(c1ccc(Cl)cc1)n1c(Cn2nnc(-c3cccc4ccccc34)n2)n[nH]c1=S" , can you help?
A) 4.09

Q) Which pEC50 reading was recorded for the compound Cc1ccc(-c2ccc3c(n2)C(=N)NC3CCc2ccc(O)cc2)o1 (stereo not drawn) ?
A) 3.89

###

tested_target: 14-3-3γ/SLP76 (Homo sapiens, UniProt P61981+Q13094)
procedure_details: Orthogonal SPR assay, compound flowed with SLP76 over immobilised 14-3-3γ
Assay type: binding
Set-up: key: Ns: no stabilisation observed in SPR
run_conditions: percentage of SLP76 remained on the chip after the dissociation phase (+240 s)
property: SPR RU (%) mass increase 14-3-3γ/SLP76

Consider the reported SPR RU (%) mass increase 14-3-3γ/SLP76 for these compounds:
>  <compound>
S=c1[nH]nc(Cn2nnc3ccccc32)o1 [Compound 13]

>  <tested_target>
14-3-3γ/SLP76 (Homo sapiens, UniProt P61981+Q13094)

>  <meas_value>
Ns ^d

$$$$
>  <compound>
CC1=Nn2c(nnc2-c2ccoc2C)SC1 [Compound 10]

>  <tested_target>
14-3-3γ/SLP76 (Homo sapiens, UniProt P61981+Q13094)

>  <meas_value>
Ns ^d

$$$$
>  <compound>
CC1=CCC2COC(C[N+]3(C)CCCCC3)C1C2 (stereo not shown) [Compound 5]

>  <tested_target>
14-3-3γ/SLP76 (Homo sapiens, UniProt P61981+Q13094)

>  <meas_value>
Ns ^d

$$$$
>  <compound>
Fc1ccc(OCc2nn3c(Cn4cnc5ccccc54)nnc3s2)cc1 [Compound 8]

>  <tested_target>
14-3-3γ/SLP76 (Homo sapiens, UniProt P61981+Q13094)

>  <meas_value>
61.2%

$$$$
>  <compound>
COc1ccc2c(c1)[C@]1(CC[N+](C)(C)CC(=O)OC(C)(C)C)CCCC[C@@H]1C=C2 [Compound 6]

>  <tested_target>
14-3-3γ/SLP76 (Homo sapiens, UniProt P61981+Q13094)

>  <meas_value>
Ns ^d

$$$$

Q) Which SPR RU (%) mass increase 14-3-3γ/SLP76 reading was recorded for the compound O=C(Cn1nc(C(F)(F)F)c2c1CCCC2)Nc1ccc(Cl)c(Cl)c1 [Compound 14] ?
A) Ns ^d

Q) Report SPR RU (%) mass increase 14-3-3γ/SLP76 for COc1ccccc1-c1nnc2scnn12 [Compound 9] please.
A) 58.7%

###

tested_target: 14-3-3ζ/p27 (Homo sapiens, UniProt P46527+P63104)
procedure_details: HTRF dose-response assay on 14-3-3ζ/p27
Format: binding
run_conditions: stabilisation; same FRET pair; EC50 estimated from fit; read-out: HTRF EC50 14-3-3ζ/p27
Collected EC50 values appear next to each entry.

Worked set:
>  <sample_smiles>
COc1ccc(C(=O)N2C[C@@H]3CN(CCO3)C(=O)[C@@H]3C[C@@H](CN3Cc3cccnc3)NC(=O)C[C@@H]3O[C@H](C2)[C@@H](O)[C@H]3O)cc1

>  <EC50>
> 250 µM

$$$$
>  <sample_smiles>
c1cc(-c2nnc3scnn23)ccn1

>  <EC50>
> 250 µM

$$$$

Proceed to the following item.
Q) Give the measured EC50 of "O=C1OC[C@@H]2CCN(Cc3ccccc3)Cc3ccccc3N12" .
A) > 250 µM
